test: gradient 5% acetonitrile 3 min, to 50% in 2 min, to 85% in 15 min, held 3 min, 100 µL/min; conditions: column: Zorbax Extend-C18 2.1 x 50 mm; eluents: water / acetonitrile, 0.1% formic acid
Measured Parameter: RP-LC retention time (s)

Solved entries (count: 2):
>  <Compound>
Cc1cccc(NC(=O)N2CCc3[nH]cnc3C2c2ccncc2)c1 (stereo unspecified)

>  <RP-LC retention time (s)>
557

$$$$
>  <Compound>
c1ccc(-c2nnc(-c3nc(NCCCN4CCC(N5CCCCC5)CC4)c4ccccc4n3)o2)cc1

>  <RP-LC retention time (s)>
550

$$$$

P: O=C(NCc1cccc(F)c1)N1CCC(n2c(-c3ccco3)nc3cccnc32)C1 (stereo unspecified)
Q: CC1CCN(c2nn(CC(=O)Nc3cccc(Cl)c3)c(=O)c3ccccc23)CC1
Q. Lab note: check whether P or Q shows the higher recorded RP-LC retention time. Could you answer with the label of the item you picked?
A. Q
